Hey, just so you know, these numbers are from patent US20050282818A1.

- System Name: TRAF6/Uev1A/Ubc13 (Homo sapiens, UniProt Q9Y4K3)
- Sequence (Q9Y4K3 whole entry): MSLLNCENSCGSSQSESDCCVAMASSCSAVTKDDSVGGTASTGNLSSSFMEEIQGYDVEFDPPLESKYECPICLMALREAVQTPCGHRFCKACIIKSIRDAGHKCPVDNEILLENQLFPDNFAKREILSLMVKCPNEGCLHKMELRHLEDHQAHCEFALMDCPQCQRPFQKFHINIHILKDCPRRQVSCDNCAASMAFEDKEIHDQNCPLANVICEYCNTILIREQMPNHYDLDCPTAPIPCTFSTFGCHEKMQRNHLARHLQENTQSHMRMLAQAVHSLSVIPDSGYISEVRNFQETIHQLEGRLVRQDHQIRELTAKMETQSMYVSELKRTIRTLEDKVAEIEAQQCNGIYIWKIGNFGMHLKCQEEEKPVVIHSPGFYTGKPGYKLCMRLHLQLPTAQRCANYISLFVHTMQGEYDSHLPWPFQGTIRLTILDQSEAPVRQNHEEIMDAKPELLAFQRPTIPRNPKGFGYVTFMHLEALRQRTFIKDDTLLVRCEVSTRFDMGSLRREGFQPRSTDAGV
- Test Protocol: TRAF6/Uev1A/Ubc13 plate-based ubiquitin ligase assay
- Format: biochemical
pIC50: −log10 of the molar value.
Listing of entries alongside the reported pIC50.

Example entries and their recorded answers appear below.
1. O=S(=O)(c1ccc(Sc2ccncc2)c2nonc12)N1CCC(O)(c2ccc(Cl)cc2)CC1: 4.70 to 6.00
2. O=S(=O)(NCC1CCCCC1)c1ccc(Cl)c2nonc12: ≤ 4.70
3. Cc1cccc(-c2cc([N+](=O)[O-])cc3nonc23)c1: ≤ 4.70

Prompt line: I have this compound here, `O=[N+]([O-])c1c(N2CCCCC2)cc(-c2cc(F)cc(F)c2)c2nonc12` , and I need its recorded pIC50.
Response line: ≤ 4.70

Prompt line: Consider the compound `COc1cccc(-c2cc(N3CCCCC3)c([N+](=O)[O-])c3nonc23)c1` and give its measured pIC50.
Response line: ≤ 4.70

Prompt line: Form field: reported pIC50 of `Clc1cc(Sc2cccc3cccnc23)cc2nonc12`
Response line: ≤ 4.70

Prompt line: Please report the recorded pIC50 for `CN1CCN(S(=O)(=O)c2ccc(Sc3cccc4ccccc34)c3nonc23)CC1` .
Response line: ≤ 4.70
